ASSAY EXPLANATION: small-molecule microarray binders of probe aNog, primary screen, biochemical, biotinylated probe, 635/667 nm fluorescence (AID 1115);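 also: probe is biotinylated aNog protein used at 0.15 µg/mL for 1 h at 4 C; z-score combines 667 nm fluorescence of each spot with its signal to noise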
TEST CONDITIONS: higher = more signal
METRIC NAME: composite z-score

C=CCNC(=O)[C@@H]1[C@H]2C(=O)O[C@H](c3ccccc3)[C@H](c3ccccc3)N2[C@H](c2ccccc2OCCO)[C@@]12C(=O)N(C(=O)OCCOC)c1ccc(C#CCCO)cc12 | -0.305
COCCCNC(=O)[C@@H]1c2ccccc2C(=O)N(Cc2cc(C(F)(F)F)cc(C(F)(F)F)c2)[C@H]1c1ccc(CO)cc1 | 0.896
COc1cccc(OC)c1C(=O)O[C@H]1[C@@H]2OC(=O)[C@H](Cc3cccc(Br)c3)C/C=C/C[C@@H](Cc3cccc(Br)c3)C(=O)O[C@H]2[C@@H](OC)O[C@@H]1CO | 0.113
NCCCC[C@@H]1NC(=O)[C@H]2C[C@@H](C(=O)NCc3ccc(F)cc3)[C@@H](c3ccc(O)cc3)N2C1=O | -0.171
N#Cc1ccc(C(O)C2C=CC3C(=O)N(c4ccccc4)C(=O)C3N2Nc2ccc([N+](=O)[O-])cc2)cc1 (stereo unspecified) | 0.595
CCOC(=O)C[C@H]1[C@H](OC(=O)c2ccc(-c3ccccc3)cc2)[C@@H](NC(=O)CC(C)C)c2cc(OCCCO)ccc2N1C(=O)Cc1ccc(OC)cc1 | -0.126
C=CC(CO)NC(=O)OCC1c2ccccc2-c2ccccc21 (stereo unspecified) | -0.208
COc1ccc(NC(=O)O[C@H]2[C@H](OC(=O)Nc3ccc4c(c3)OCO4)[C@H](OC(=O)Nc3ccc4c(c3)OCO4)[C@@H](OC)O[C@@H]2CO)cc1 | -0.147
C=CC[C@]1(C(=O)OC)N=C(c2ccc(OCCCO)cc2)O[C@H]1c1ccccc1N=[N+]=[N-] | 1.7
CC(C)(C)OC(=O)CC[C@]1(C(=O)N2CCOCC2)N=C(c2ccc(OCCCO)cc2)O[C@H]1c1ccccc1CN=[N+]=[N-] | 1.92

Entry under review: "C=CCNC(=O)[C@H]1[C@@H]2C(=O)O[C@@H](c3ccccc3)[C@@H](c3ccccc3)N2[C@@H](c2ccc(O)cc2)[C@]12C(=O)Nc1ccc(C#CC3=CCCCC3)cc12" . Reported composite z-score?
0.587

Input "COC(=O)[C@@]1(Cc2ccc(OC)cc2)[C@@H]2[C@@H](CC(=O)[C@H]2CC(=O)C(=O)N2CCCC2)CN1C(=O)c1ccccc1"
2.97

Input C=CCC(OC(C)=O)[C@@H]1[C@@H](N(Cc2ccc(-c3ccccc3)cc2)C(=O)c2ccc(-c3ccccc3)cc2)c2cc(OCCCO)ccc2N1C(=O)c1ccc2ccccc2n1 (stereo partly specified)
-0.335

Input "COc1ccc(C#Cc2ccc3c(c2)[C@]2(C(=O)N3)[C@H](C(=O)Nc3nc4ccccc4s3)[C@H]3C(=O)O[C@H](c4ccccc4)[C@H](c4ccccc4)N3[C@@H]2c2ccc(OCCO)cc2)cc1"
0.302

Input COC(=O)C1=CC(CCCO)=CC(c2ccc(CN3CCCC3)cc2)N(Cc2sc3ccccc3c2Cl)C=C1C(=O)OC (stereo unspecified)
2.08

Input "C=C(CC1([C@@H](NP(=O)(c2ccccc2)c2ccccc2)[C@H]2C[C@@H]2CCN(C(=O)OCC)S(=O)(=O)c2ccc(C)cc2)CC1)c1ccccc1"
1.06

The measured values listed here are drawn from PubChem BioAssay.
